study_target: CXCR4 (Homo sapiens, UniProt P61073)
Construct: expressed in transfected cells; host or cells: U87, transient cotransfection of pNBe vectors
Sequence (P61073 whole entry): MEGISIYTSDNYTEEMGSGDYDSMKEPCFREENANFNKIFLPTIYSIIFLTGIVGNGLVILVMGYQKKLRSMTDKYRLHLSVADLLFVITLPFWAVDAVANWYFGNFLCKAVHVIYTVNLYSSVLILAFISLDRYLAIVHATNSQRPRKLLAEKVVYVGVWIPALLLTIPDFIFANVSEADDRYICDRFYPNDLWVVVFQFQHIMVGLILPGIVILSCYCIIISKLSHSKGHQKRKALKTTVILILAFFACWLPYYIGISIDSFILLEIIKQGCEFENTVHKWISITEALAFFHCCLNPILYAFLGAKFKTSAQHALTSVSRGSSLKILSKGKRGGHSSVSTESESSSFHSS
protocol: cell-based
Parameters: dose or concentration left out as unconfirmed
condition_summary: Figure S2a; replicate 1; read-out: CXCR4 activity, ctrl+ = 100
Starred links: 1 amine or outer side, 2 acyl side, 3 side chain; linkers in the order of their positions; H or OH if unused. Non-standard residues stand in square brackets, D forms with d. Residues, ends and D or L forms follow the SMILES beside them. X1 = N[C@@H](Cc1ccccc1)CN(CC(=O)[*:2])[*:1]
measured_parameter: activation
Please answer in the form of a number followed by its unit of measurement.

Below, 2 molecules whose answers are already recorded.
Task: What does the data say about its activation? Entry: `CC(C)C[C@H](NC(=O)[C@H](CCCCN)NC(=O)[C@H](CCCN=C(N)N)NC(=O)[C@H](C)NC(=O)[C@H](CO)NC(=O)[C@H](CCCCN)NC(=O)[C@H](CCCN=C(N)N)NC(=O)[C@H](C)NC(=O)CNC(=O)[C@@H](NC(=O)[C@H](Cc1ccccc1)NC(=O)CNC(=O)CNC(=O)[C@@H](N)Cc1ccccc1)[C@@H](C)O)C(=O)N[C@@H](C)C(=O)N[C@@H](CC(N)=O)C(=O)N[C@@H](CCC(N)=O)C(=O)O`
Output: 3.24%

Task: What does the data say about its activation? Entry: NC(=O)[C@H](Cc1ccccc1)NC(=O)[C@H](Cc1c[nH]c2ccccc12)NC(=O)[C@@H]1CCCN1C(=O)[C@@H](N)Cc1ccc(O)cc1 [Endomorphin-1]
Output: 36.3%

// next item, activation requested
Task: What does the data say about its activation? Entry: C[C@H](NC(=O)CNC(=O)[C@@H](NC(=O)[C@H](Cc1ccccc1)NC(=O)CNC(=O)CNC[C@@H](N)Cc1ccccc1)[C@@H](C)O)C(=O)N[C@@H](CCCNC(=N)N)C(=O)N[C@@H](CCCCN)C(=O)N[C@@H](CO)C(=O)N[C@@H](C)C(=O)N[C@@H](CCCNC(=N)N)C(=O)N[C@@H](CCCCN)C(N)=O [FG Nociceptin 1-13] (H-[X1]GFTGARKSARK-NH2)
Output: 1.4%
